Measured IC50, listed per entry for reference.
Biological target: T1, His-tagged, full-length PCSK9 (human, UniProt Q8NBP7 31-692)
T1 construct: secreted PCSK9 is autocatalytically cleaved into prodomain and catalytic domain + CRD (from S153), which stay associated; also called His-PCSK9; proprotein convertase subtilisin/kexin type 9; not shown: His tag
T1 sequence (Q8NBP7 31-692 limits assumed): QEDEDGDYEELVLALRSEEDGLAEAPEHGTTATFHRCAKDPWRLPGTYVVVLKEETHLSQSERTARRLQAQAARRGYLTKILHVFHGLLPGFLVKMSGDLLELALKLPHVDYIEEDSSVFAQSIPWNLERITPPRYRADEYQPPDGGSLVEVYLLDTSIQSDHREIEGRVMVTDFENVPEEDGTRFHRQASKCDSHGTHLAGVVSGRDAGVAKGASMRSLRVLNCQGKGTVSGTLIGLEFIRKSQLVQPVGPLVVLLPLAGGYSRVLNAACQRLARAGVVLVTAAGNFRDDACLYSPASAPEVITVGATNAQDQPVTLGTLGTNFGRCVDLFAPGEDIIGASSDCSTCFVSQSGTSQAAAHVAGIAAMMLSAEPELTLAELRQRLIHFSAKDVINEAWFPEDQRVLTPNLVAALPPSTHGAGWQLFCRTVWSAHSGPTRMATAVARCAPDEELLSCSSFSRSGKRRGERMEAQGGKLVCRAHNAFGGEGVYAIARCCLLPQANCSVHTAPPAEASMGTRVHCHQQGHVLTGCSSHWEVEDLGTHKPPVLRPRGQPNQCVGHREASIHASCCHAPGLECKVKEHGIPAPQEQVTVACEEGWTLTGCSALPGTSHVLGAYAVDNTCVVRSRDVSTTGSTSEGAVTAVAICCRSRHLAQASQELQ
Test: TR-FRET competition (PCSK9/EGF(A) assay); competitor EGF(A)-Fc;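 note: proximity signal from anti-His APC on PCSK9 paired with anti-Fc europium on the Fc ligand, read as normalized TR-FRET ratio across compound dilutions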
Bridge positions count the residues as written; N and C are the ends.

Binder	IC50
Ac-CRLPANLQRIGLPC-NH2 (disulfide 1-14; SMILES CC[C@H](C)[C@@H]1NC(=O)[C@H](CCCNC(=N)N)NC(=O)[C@H](CCC(N)=O)NC(=O)[C@H](CC(C)C)NC(=O)[C@H](CC(N)=O)NC(=O)[C@H](C)NC(=O)[C@@H]2CCCN2C(=O)[C@H](CC(C)C)NC(=O)[C@H](CCCNC(=N)N)NC(=O)[C@@H](NC(C)=O)CSSC[C@@H](C(N)=O)NC(=O)[C@@H]2CCCN2C(=O)[C@H](CC(C)C)NC(=O)CNC1=O) [Compound 76 (Ac-CRLPANLQRIGLPC-NH2)]	> 50 µM
Ac-CRAPWNLQRIGLPC-NH2 (disulfide 1-14; SMILES CC[C@H](C)[C@@H]1NC(=O)[C@H](CCCNC(=N)N)NC(=O)[C@H](CCC(N)=O)NC(=O)[C@H](CC(C)C)NC(=O)[C@H](CC(N)=O)NC(=O)[C@H](Cc2c[nH]c3ccccc23)NC(=O)[C@@H]2CCCN2C(=O)[C@H](C)NC(=O)[C@H](CCCNC(=N)N)NC(=O)[C@@H](NC(C)=O)CSSC[C@@H](C(N)=O)NC(=O)[C@@H]2CCCN2C(=O)[C@H](CC(C)C)NC(=O)CNC1=O) [Compound 78 (Ac-CRAPWNLQRIGLPC-NH2)]	> 50 µM

stdin: Return IC50 (reported value) for this binder: Ac-SGCRLPWNLQRIGLPC-NH2 (disulfide 3-16) [Compound 30 (Ac-SG-CRLPWNLQRIGLPC-NH2)]
stdout: > 50 µM

Data provenance: patent US20200283478A1
